Biological target: cGMP-specific 3',5'-cyclic phosphodiesterase (Rattus norvegicus, UniProt O54735)
Assay: Inhibition of phosphodiesterase 5 in rat fetal lung fibroblast (RFL-6) cells
Type: cell-based
Measured Ki of individual entries
Expressed in nM, but write only the number.

Oc1c2c(nc3ccccc13)[C@@H](c1ccc3c(c1)CCO3)N(c1ccccn1)C2    0.12

Entry Oc1c2c(nc3ccccc13)C(c1ccc3c(c1)CCO3)N(c1ccc(-c3cncn3Cc3ccccc3)cn1)C2 (centres undefined) ; Ki = 0.17

Entry `CN1CC(=O)N2[C@H](c3ccc4c(c3)OCO4)c3[nH]c4ccccc4c3C[C@@H]2C1=O` ; Ki = 5

Entry COc1ccc(-c2cnc(N3Cc4c(nc5ccccc5c4O)C3c3ccc4c(c3)CCO4)nc2)cc1 (centres undefined) ; Ki = 0.52

---

Test system: RFL-6
Assay: Ratio of inhibitory constant against cone phosphodiesterase 6 and phosphodiesterase 5 in rat fetal lung fibroblast (RFL-6) cells
Type: cell-based
Measured Selectivity of individual entries
Please state the value as a number alone, without comment.

Example molecules with recorded Selectivity:
Oc1c2c(nc3ccccc13)C(c1ccc3occc3c1)N(c1ncc(-c3ccccn3)cn1)C2 (stereo not given)    22.3
Oc1c2c(nc3ccccc13)C(c1ccc3c(c1)CCO3)N(c1ncc(-c3ccncc3)cn1)C2 (stereo not given)    12.1
Oc1c2c(nc3ccccc13)C(c1ccc3c(c1)CCO3)N(c1ncc(Br)cn1)C2 (stereo not given)    39.2
Oc1c2c(nc3ccccc13)C(c1ccc3c(c1)OCO3)N(c1ncc(-c3cccnc3)cn1)C2 (stereo not given)    7.6

Attention now turns to another entry.
Entry `CN1CC(=O)N2[C@H](c3ccc4c(c3)OCO4)c3[nH]c4ccccc4c3C[C@@H]2C1=O` ; Selectivity = 1000

---

System: RFL-6
Assay: Ratio of inhibitory constant against cone phosphodiesterase 6 and phosphodiesterase 5 in rat fetal lung fibroblast (RFL-6) cells
Type: cell-based
Property Name: Selectivity
Please state the value as a number alone, without comment.

Example compounds with recorded Selectivity:
Oc1c2c(nc3ccccc13)C(c1ccc3c(c1)CCO3)N(c1ccccn1)C2 (configuration not stated)    237
Cn1cncc1-c1ccc(N2Cc3c(nc4ccccc4c3O)C2c2ccc3c(c2)CCO3)nc1 (configuration not stated)    10.3
Oc1c2c(nc3ccccc13)C(c1ccc3c(c1)CCO3)N(c1ncc(-c3cccnc3)cn1)C2 (configuration not stated)    66.5
Oc1c2c(nc3ccccc13)[C@@H](c1ccc3c(c1)CCO3)N(c1ncc(-c3ccccn3)cn1)C2    67
Cc1ncc(-c2cnc(N3Cc4c(nc5ccccc5c4O)C3c3ccc4c(c3)CCO4)nc2)n1C (configuration not stated)    219

Entry Oc1c2c(nc3ccccc13)C(c1ccc3c(c1)CCO3)N(c1ncccn1)C2 (configuration not stated) ; Selectivity = 310

Entry Oc1c2c(nc3ccccc13)C(c1ccc3c(c1)OCO3)N(c1ccc(-n3ccnc3)cc1)C2 (configuration not stated) ; Selectivity = 13.2

Entry Oc1c2c(nc3ccccc13)C(c1ccc3c(c1)CCO3)N(c1ccc(-c3ccccn3)cn1)C2 (configuration not stated) ; Selectivity = 69.2

---

System: RFL-6
Assay: Ratio of inhibitory constant against phosphodiesterase 4 and phosphodiesterase 5 in rat fetal lung fibroblast (RFL-6) cells
Assay type: cell-based
Measured Selectivity of individual entries

Example compounds with recorded Selectivity:
Cc1ncc(-c2cnc(N3Cc4c(nc5ccccc5c4O)C3c3ccc4c(c3)CCO4)nc2)n1C (stereo not given)    > 2500
Oc1c2c(nc3ccccc13)C(c1ccc3c(c1)OCO3)N(c1ccc(-n3ccnc3)cc1)C2 (stereo not given)    > 2500
Oc1c2c(nc3ccccc13)C(c1ccc3c(c1)CCO3)N(c1ncc(Br)cn1)C2 (stereo not given)    > 2500
Cc1ncc(-c2cnc(N3Cc4c(nc5ccccc5c4O)C3c3ccc4c(c3)CCO4)nc2)n1Cc1ccccc1 (stereo not given)    > 2500

The observed Selectivity for `CN1CC(=O)N2[C@H](c3ccc4c(c3)OCO4)c3[nH]c4ccccc4c3C[C@@H]2C1=O` when tested with RFL-6 stands at > 2000
